biological target: UniProtKB Q92887; assay: MRP2 transporter vesicle assay; assay type: in vitro ADME
Sequence (Q92887 whole entry): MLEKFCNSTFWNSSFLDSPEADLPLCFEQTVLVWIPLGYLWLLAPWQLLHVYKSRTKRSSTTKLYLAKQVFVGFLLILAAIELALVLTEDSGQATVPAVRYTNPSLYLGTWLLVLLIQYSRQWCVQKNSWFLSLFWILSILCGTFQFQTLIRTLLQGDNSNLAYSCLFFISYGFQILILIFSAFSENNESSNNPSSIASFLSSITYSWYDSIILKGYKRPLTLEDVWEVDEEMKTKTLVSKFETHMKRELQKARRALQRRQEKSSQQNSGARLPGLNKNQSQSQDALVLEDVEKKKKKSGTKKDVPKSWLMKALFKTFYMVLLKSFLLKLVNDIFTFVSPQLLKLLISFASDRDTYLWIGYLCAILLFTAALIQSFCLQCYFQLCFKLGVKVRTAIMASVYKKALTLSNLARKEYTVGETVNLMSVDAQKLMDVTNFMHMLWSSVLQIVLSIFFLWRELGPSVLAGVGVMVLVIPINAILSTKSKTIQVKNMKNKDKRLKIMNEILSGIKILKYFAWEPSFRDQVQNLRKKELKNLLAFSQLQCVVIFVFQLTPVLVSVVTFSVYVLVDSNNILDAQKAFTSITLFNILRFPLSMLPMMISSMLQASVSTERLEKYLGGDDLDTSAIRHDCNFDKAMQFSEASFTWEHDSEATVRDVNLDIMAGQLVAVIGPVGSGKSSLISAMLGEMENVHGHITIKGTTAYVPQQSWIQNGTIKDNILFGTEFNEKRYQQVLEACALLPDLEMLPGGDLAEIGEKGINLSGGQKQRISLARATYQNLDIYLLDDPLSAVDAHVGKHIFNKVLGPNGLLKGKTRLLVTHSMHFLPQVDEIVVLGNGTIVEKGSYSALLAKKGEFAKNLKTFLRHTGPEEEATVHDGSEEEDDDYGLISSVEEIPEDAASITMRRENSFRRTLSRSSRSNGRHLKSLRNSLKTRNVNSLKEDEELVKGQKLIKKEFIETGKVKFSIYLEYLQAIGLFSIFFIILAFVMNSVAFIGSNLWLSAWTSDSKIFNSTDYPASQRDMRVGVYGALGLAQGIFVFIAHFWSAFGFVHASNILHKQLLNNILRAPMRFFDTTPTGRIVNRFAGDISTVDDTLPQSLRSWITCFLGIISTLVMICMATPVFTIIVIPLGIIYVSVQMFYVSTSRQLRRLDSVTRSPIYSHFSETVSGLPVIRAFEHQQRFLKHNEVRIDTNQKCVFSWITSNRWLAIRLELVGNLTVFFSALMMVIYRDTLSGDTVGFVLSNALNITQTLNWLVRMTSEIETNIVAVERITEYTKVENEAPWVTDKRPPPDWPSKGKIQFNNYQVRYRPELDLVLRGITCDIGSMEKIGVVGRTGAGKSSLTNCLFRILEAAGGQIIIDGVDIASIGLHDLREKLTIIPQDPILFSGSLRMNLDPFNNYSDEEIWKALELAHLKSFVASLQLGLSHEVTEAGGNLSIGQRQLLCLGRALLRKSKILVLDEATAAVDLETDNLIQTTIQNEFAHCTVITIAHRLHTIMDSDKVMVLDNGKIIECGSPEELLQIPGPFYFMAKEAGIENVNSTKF
Starred links: 1 amine or outer side, 2 acyl side, 3 side chain; linkers in the order of their positions; H or OH if unused. Non-standard residues stand in square brackets, D forms with d. Residues, ends and D or L forms follow the SMILES beside them. MeBmt = C/C=C/C[C@@H](C)[C@@H](O)[C@H](NC)C(=O)O; X77 = COC[C@H](C)[C@@H](C(=O)[*:2])N(C)[*:1]; NMeL = CN[C@@H](CC(C)C)C(=O)O; NMeV = CN[C@H](C(=O)O)C(C)C; dNMeA = CN[C@H](C)C(=O)O; Abu = CC[C@H](N)C(=O)O
Exercise: for every item that follows, state its recorded IC50.
Write the value in µM as a bare number.

// fetch UniProtKB Q92887 IC50 for `C/C=C/C[C@@H](C)[C@@H](O)[C@H]1C(=O)N[C@@H](CC)C(=O)N(C)[C@H](C)C(=O)N(C)[C@@H]([C@H](C)COC)C(=O)N[C@@H](C(C)C)C(=O)N(C)[C@@H](CC(C)C)C(=O)N[C@@H](C)C(=O)N[C@H](C)C(=O)N(C)[C@@H](CC(C)C)C(=O)N(C)[C@@H](CC(C)C)C(=O)N(C)[C@@H](C(C)C)C(=O)N1C` 14

Value wanted: IC50 (UniProtKB Q92887) of entry C/C=C/C[C@@H](C)[C@@H](O)[C@H]1C(=O)N[C@@H](CC)C(=O)N(C)[C@H](C)C(=O)N(C)[C@@H]([C@@H](C)COC)C(=O)N[C@@H](C(C)C)C(=O)N(C)[C@@H](CC(C)C)C(=O)N[C@@H](C)C(=O)N[C@H](C)C(=O)N(C)[C@@H](CC(C)C)C(=O)N(C)[C@@H](CC(C)C)C(=O)N(C)[C@@H](C(C)C)C(=O)N1C [Compound 2.2] (cyclo(A[dA][NMeL][NMeL][NMeV][MeBmt][Abu][dNMeA][X77]V[NMeL])) 15

Kindly state the measured IC50 obtained for C/C=C/C[C@@H](C)[C@@H](O)[C@H]1C(=O)N[C@@H](CC)C(=O)N(C)[C@H](C)C(=O)N(C)[C@@H]([C@H](C)COCCOC(=O)N2CCN(C)CC2)C(=O)N[C@@H](C(C)C)C(=O)N(C)[C@@H](CC(C)C)C(=O)N[C@@H](C)C(=O)N[C@H](C)C(=O)N(C)[C@@H](CC(C)C)C(=O)N(C)[C@@H](CC(C)C)C(=O)N(C)[C@@H](C(C)C)C(=O)N1C (stereo in doubt) with UniProtKB Q92887. 30

###

Biological target: CypF (Homo sapiens (Human))
Sequence (P30405 30-207): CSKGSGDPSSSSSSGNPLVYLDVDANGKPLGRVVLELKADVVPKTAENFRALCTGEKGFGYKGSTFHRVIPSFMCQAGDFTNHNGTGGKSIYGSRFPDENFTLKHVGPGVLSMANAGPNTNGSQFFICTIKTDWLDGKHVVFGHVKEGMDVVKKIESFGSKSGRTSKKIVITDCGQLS
Assay: Inhibitor binding to cyclophilin proteins by SPR, CypF
Conditions: 1:1 binding model
Experimental: Method 1: Measuring Inhibitor Binding to Cyclophilin Proteins Binding of inhibitors to expressed cyclophilins was determined using surface plasmon resonance (SPR) experiments. Briefly, avi-tagged cyclophilin proteins with mono-biotinylation were immobilized onto a Biotin CAPture chip (GE Healthcare, cat. #28920234). […] Data was analyzed using Biacore T200 Evaluation Software Version 1.0 and a 1:1 binding model was applied to fit the data to obtain kon, koff, and KD.
Starred links: 1 amine or outer side, 2 acyl side, 3 side chain; linkers in the order of their positions; H or OH if unused. Non-standard residues stand in square brackets, D forms with d. Residues, ends and D or L forms follow the SMILES beside them. X50 = C[C@H](CN1CCNC(=O)C1)[C@@H](C(=O)[*:2])N(C)[*:1]; MeBmt = C/C=C/C[C@@H](C)[C@@H](O)[C@H](NC)C(=O)O; NMeL = CN[C@@H](CC(C)C)C(=O)O; NMeV = CN[C@H](C(=O)O)C(C)C; dNMeA = CN[C@H](C)C(=O)O; Abu = CC[C@H](N)C(=O)O
Measure: CypF Kd (nM)
Response body: numeric value in nM, unit text excluded.

Give its CypF Kd value. Item: C/C=C/C[C@@H](C)[C@@H](O)[C@H]1C(=O)N[C@@H](CC)C(=O)N(C)[C@H](C)C(=O)N(C)[C@@H]([C@H](C)CN2CCNC(=O)C2)C(=O)N[C@@H](C(C)C)C(=O)N(C)[C@@H](CC(C)C)C(=O)N[C@@H](C)C(=O)N[C@H](C)C(=O)N(C)[C@@H](CC(C)C)C(=O)N(C)[C@@H](CC(C)C)C(=O)N(C)[C@@H](C(C)C)C(=O)N1C [Compound 2.5.30] (cyclo(A[dA][NMeL][NMeL][NMeV][MeBmt][Abu][dNMeA][X50]V[NMeL])) 1.1

###

What CypF Kd was measured for each of the following?
target: CypF (Homo sapiens (Human)); assay: Inhibitor binding to cyclophilin proteins by SPR, CypF; conditions: 1:1 binding model
Starred links: 1 amine or outer side, 2 acyl side, 3 side chain; linkers in the order of their positions; H or OH if unused. Non-standard residues stand in square brackets, D forms with d. Residues, ends and D or L forms follow the SMILES beside them. X52 = C[C@H](CCC(=O)N1CCOCC1)[C@@H](C(=O)[*:2])N(C)[*:1]; X30 = C[C@H](CN1CCCOCC1)[C@@H](C(=O)[*:2])N(C)[*:1]; MeBmt = C/C=C/C[C@@H](C)[C@@H](O)[C@H](NC)C(=O)O; X15 = COCC(COC)[C@@H](C(=O)[*:2])N(C)[*:1]; NMeL = CN[C@@H](CC(C)C)C(=O)O; NMeV = CN[C@H](C(=O)O)C(C)C; dNMeA = CN[C@H](C)C(=O)O; Abu = CC[C@H](N)C(=O)O

Checklist item: CypF Kd tested on CypF (Homo sapiens (Human)), entry C/C=C/C[C@@H](C)[C@@H](O)[C@H]1C(=O)N[C@@H](CC)C(=O)N(C)[C@H](C)C(=O)N(C)[C@@H](C(COC)COC)C(=O)N[C@@H](C(C)C)C(=O)N(C)[C@@H](CC(C)C)C(=O)N[C@@H](C)C(=O)N[C@H](C)C(=O)N(C)[C@@H](CC(C)C)C(=O)N(C)[C@@H](CC(C)C)C(=O)N(C)[C@@H](C(C)C)C(=O)N1C [Compound 2.11] (cyclo(A[dA][NMeL][NMeL][NMeV][MeBmt][Abu][dNMeA][X15]V[NMeL])) , value? 1.2 nM

Field: CypF Kd (CypF (Homo sapiens (Human))). Entry: C/C=C/C[C@@H](C)[C@@H](O)[C@H]1C(=O)N[C@@H](CC)C(=O)N(C)[C@H](C)C(=O)N(C)[C@@H]([C@H](C)CCC(=O)N2CCOCC2)C(=O)N[C@@H](C(C)C)C(=O)N(C)[C@@H](CC(C)C)C(=O)N[C@@H](C)C(=O)N[C@H](C)C(=O)N(C)[C@@H](CC(C)C)C(=O)N(C)[C@@H](CC(C)C)C(=O)N(C)[C@@H](C(C)C)C(=O)N1C [Compound 2.14.4] (cyclo(A[dA][NMeL][NMeL][NMeV][MeBmt][Abu][dNMeA][X52]V[NMeL])) 1.1 nM

Record C/C=C/C[C@@H](C)[C@@H](O)[C@H]1C(=O)N[C@@H](CC)C(=O)N(C)[C@H](C)C(=O)N(C)[C@@H]([C@H](C)CN2CCCOCC2)C(=O)N[C@@H](C(C)C)C(=O)N(C)[C@@H](CC(C)C)C(=O)N[C@@H](C)C(=O)N[C@H](C)C(=O)N(C)[C@@H](CC(C)C)C(=O)N(C)[C@@H](CC(C)C)C(=O)N(C)[C@@H](C(C)C)C(=O)N1C [Compound 2.5.21] (cyclo(A[dA][NMeL][NMeL][NMeV][MeBmt][Abu][dNMeA][X30]V[NMeL])) : what is its CypF Kd with CypF (Homo sapiens (Human))? 0.8 nM

###

molecular target: UniProt:P08684; assay: Time-dependent inhibition of CYP3A4;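 note: Two-step in vitro assay, kobs derived from residual CYP3A4 activity versus preincubation time per concentration, then kinact and KI by nonlinear fit of kobs against concentration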
Sequence (P08684 whole entry): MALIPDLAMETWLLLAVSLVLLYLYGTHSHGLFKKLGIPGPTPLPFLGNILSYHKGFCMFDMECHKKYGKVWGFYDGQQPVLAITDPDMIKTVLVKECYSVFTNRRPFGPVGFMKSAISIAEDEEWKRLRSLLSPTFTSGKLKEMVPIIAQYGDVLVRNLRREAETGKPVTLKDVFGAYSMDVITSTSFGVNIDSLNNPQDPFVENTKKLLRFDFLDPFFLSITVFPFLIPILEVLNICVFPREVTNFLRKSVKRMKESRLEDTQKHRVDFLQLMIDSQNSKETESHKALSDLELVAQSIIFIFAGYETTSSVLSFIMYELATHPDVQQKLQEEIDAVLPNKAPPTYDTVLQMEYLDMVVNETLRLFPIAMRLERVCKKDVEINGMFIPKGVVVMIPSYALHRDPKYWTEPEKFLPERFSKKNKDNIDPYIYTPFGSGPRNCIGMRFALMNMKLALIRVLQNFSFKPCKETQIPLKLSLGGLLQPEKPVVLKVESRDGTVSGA
pKi: −log10 of the molar value. Starred links: 1 amine or outer side, 2 acyl side, 3 side chain; linkers in the order of their positions; H or OH if unused. Non-standard residues stand in square brackets, D forms with d. Residues, ends and D or L forms follow the SMILES beside them. X5 = C[C@H](COC(=O)N1CCN(C)CC1)[C@@H](C(=O)[*:2])N(C)[*:1]; MeBmt = C/C=C/C[C@@H](C)[C@@H](O)[C@H](NC)C(=O)O; NMeL = CN[C@@H](CC(C)C)C(=O)O; NMeV = CN[C@H](C(=O)O)C(C)C; dNMeA = CN[C@H](C)C(=O)O; Abu = CC[C@H](N)C(=O)O
Measure: pKi

Item C/C=C/C[C@@H](C)[C@@H](O)[C@H]1C(=O)N[C@@H](CC)C(=O)N(C)[C@H](C)C(=O)N(C)[C@@H]([C@H](C)COC(=O)N2CCN(C)CC2)C(=O)N[C@@H](C(C)C)C(=O)N(C)[C@@H](CC(C)C)C(=O)N[C@@H](C)C(=O)N[C@H](C)C(=O)N(C)[C@@H](CC(C)C)C(=O)N(C)[C@@H](CC(C)C)C(=O)N(C)[C@@H](C(C)C)C(=O)N1C [Compound 2.5.9] (cyclo(A[dA][NMeL][NMeL][NMeV][MeBmt][Abu][dNMeA][X5]V[NMeL])) with UniProt:P08684 - pKi? < 4.30
